These measurements were taken from patent US20040053370A1.

Target: GLP-1 receptor
Assay: cell-based or functional assay
Ends that are not written are not given here.
PARAMETER MEASURED: GLP-1 Receptor Activation

- BINDER: "HVEGTFTSDVSSWLEEQAAKEFIAWLVKGRG [Val^8-Trp^19-Glu^22-GLP-1(7-37)OH]"
  REPORTED VALUE: "1.5 fold of GLP-1(7-37)OH"
- BINDER: "HVEGTFTSDVSKYLEEQAAKEFIAWLVKGRG [Val^8-Lys^18-Glu^22-GLP-1(7-37)OH]"
  REPORTED VALUE: "1.18 fold of GLP-1(7-37)OH"
- BINDER: "HVEGTFTSDVSFYLEEQAAKEFIAWLVKGRG [Val^8-Phe^18-Glu^22-GLP-1(7-37)OH]"
  REPORTED VALUE: "0.94 fold of GLP-1(7-37)OH"
- BINDER: "HVEGTYTSDYSSYLEGQAAKEFIAWLVKGRG [Val^8-Tyr^12-Tyr^16-GLP-1(7-37)OH]"
  REPORTED VALUE: "0.7 fold of GLP-1(7-37)OH"
- BINDER: "HVDGIFTSDYSSYLEEQAAKEFIAWLVKGRG [Val^8-Asp^9-Ile^11-Tyr^16-Glu^22-GLP-1(7-37)OH]"
  REPORTED VALUE: "2.02 fold of GLP-1(7-37)OH"
- BINDER: "HVEGTYTSDVSSYLEGQAAKEFIAWLVKGR-NH2 [Val^8-Tyr^12-GLP-1(7-36)NH2]"
  REPORTED VALUE: "0.52 fold of GLP-1(7-37)OH"
- BINDER: "HVEGTFTSDYSSYLEGQAAKEFIAWLVKGRG [Val^8-Tyr^16-GLP-1(7-37)OH]"
  REPORTED VALUE: "1.18 fold of GLP-1(7-37)OH"
- BINDER: "HVEGTFTSDVSSYLEGQALKEFIAWLVKGRG [Val^8-Leu^25-GLP-1(7-37)OH]"
  REPORTED VALUE: "0.24 fold of GLP-1(7-37)OH"
- BINDER: "HVEGTFTSDVSSYLEEQALKEFIAWLVKGRG [Val^8-Glu^22-Leu^25-GLP-1(7-37)OH]"
  REPORTED VALUE: "1.32 fold of GLP-1(7-37)OH"
- BINDER: "HVEGTYTSDVSSYLEEQAAKEFIAWLVKGRG [Val^8-Tyr^12-Glu^22-GLP-1(7-37)OH]"
  REPORTED VALUE: "1.27 fold of GLP-1(7-37)OH"
- BINDER: "HVEGTFTSDVSSYLEEQAAKIFIAWLVKGRG [Val^8-Glu^22-Ile^27-GLP-1(7-37)OH]"
  REPORTED VALUE: "0.94 fold of GLP-1(7-37)OH"
- BINDER: "HVEGTFTSDVSIYLEEQAAKEFIAWLVKGRG [Val^8-Ile^18-Glu^22-GLP-1(7-37)OH]"
  REPORTED VALUE: "1.88 fold of GLP-1(7-37)OH"
- BINDER: "HVEGTFTSDLSSYLEEQAAKEFIAWLVKGRG [Val^8-Leu^16-Glu^22-GLP-1(7-37)OH]"
  REPORTED VALUE: "2.02 fold of GLP-1(7-37)OH"
